Below is a list of entries, each paired with its recorded ED50 value.
Tested on: Staphylococcus Aureus
PROTOCOL SUMMARY: In vivo activity in an acute lethal mouse infection model
EXPERIMENTAL CONDITIONS: sc, 168 h, mice infected intraperitoneally with S. aureus, subcutaneous in sterile distilled water containing 5% dimethylsulfoxide, dosed at one hour and four hours post-infection, survivors on seventh day, read-out: ED₅₀ Subcutaneous Administration
# unit: mg/kg | format: bare number

Reference set (3 entries):
COMPOUND: CC(=O)NC[C@H]1CN(c2ccc(C(=O)c3ccc(F)cc3F)cc2)C(=O)O1
TGT: Staphylococcus Aureus
UNIT INFO: mg/kg
ED50: 26
//
COMPOUND: CC(=O)NC[C@H]1CN(c2ccc(C(=O)c3cccc(F)c3)cc2)C(=O)O1
TGT: Staphylococcus Aureus
UNIT INFO: mg/kg
ED50: 25
//
COMPOUND: CC(=O)NC[C@H]1CN(c2ccc(C(O)c3ccccc3)cc2)C(=O)O1 (some centres unmarked)
TGT: Staphylococcus Aureus
UNIT INFO: mg/kg
ED50: 52

Turning now to a further record.
Test system Staphylococcus Aureus; read-out ED50; what value for CC(=O)NC[C@H]1CN(c2ccc(C(=O)c3ccccc3)cc2)C(=O)O1 ?
60

Source listed as patent EP0312000B1.
